Tested on: NCI-H441
assay_overview: % viability in DMSO, miRNA mimic relative to NTC in DMSO; higher = less cytotoxic
condition_context: drug used in drug arm: carboplatin 2.5 uM; treatment: DMSO
Assign labels as follows, please: Condition met for % viability in DMSO below 30%; Condition not met for % viability in DMSO equal to or exceeding 30%.

% viability in DMSO under 30%? Item: GAGCCAGUUGGACAGGAGC
Condition not met

% viability in DMSO under 30%? Item: ACAGUAGAGGGAGGAAUCGCAG
Condition not met

% viability in DMSO under 30%? Item: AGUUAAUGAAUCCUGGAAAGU
Condition not met

% viability in DMSO under 30%? Item: AACGCCAUUAUCACACUAAAUA
Condition met

% viability in DMSO under 30%? Item: AAGUGCCGCCAUCUUUUGAGUGU
Condition met

% viability in DMSO under 30%? Item: UGUCAGUUUGUCAAAUACCCCA
Condition met

% viability in DMSO under 30%? Item: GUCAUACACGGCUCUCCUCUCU
Condition met

% viability in DMSO under 30%? Item: UCUACAAAGGAAAGCGCUUUCU
Condition not met

% viability in DMSO under 30%? Item: CAAUGUUUCCACAGUGCAUCAC
Condition met

% viability in DMSO under 30%? Item: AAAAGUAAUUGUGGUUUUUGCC
Condition not met

% viability in DMSO under 30%? Item: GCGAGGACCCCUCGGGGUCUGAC
Condition met

% viability in DMSO under 30%? Item: UAGGUAGUUUCAUGUUGUUGGG
Condition met

% viability in DMSO under 30%? Item: GAAUGUUGCUCGGUGAACCCCU
Condition met

% viability in DMSO under 30%? Item: AAAAGUACUUGCGGAUUUUGCU
Condition not met

% viability in DMSO under 30%? Item: CAAAAGUAAUUGUGGAUUUUGU
Condition not met

% viability in DMSO under 30%? Item: AAAAGUAAUUGCGGAUUUUGCC
Condition not met
